Here the recorded TGI is given for each entry.
System: HL-60(TB) leukemia
Assay: NCI tumour cell line growth inhibition, 48 h

Example entries and their recorded answers appear below.
> print(dat)
                                   compound       system.tested  metric.name  assay.value
1  COc1cc([C@@H]2c3cc4c(cc3[C@@H](NC(=O)c3ccccc3)C3COC(=O)[C@@H]32)OCO4)cc(OC)c1O (stereo not given in full)  HL-60(TB) leukemia          TGI      9.44 µM
2                 O=c1oc2ccccc2n1CCN1CCCCC1  HL-60(TB) leukemia          TGI     > 100 µM
3  Cc1c(NC(=S)Nc2ccc(Cl)cc2)c(=O)n(-c2ccccc2)n1C  HL-60(TB) leukemia          TGI     > 100 µM
4  CC1=C(O)C(=O)C2C(=O)C1C(C)C2c1ccc(Cl)cc1 (stereo not given)  HL-60(TB) leukemia          TGI     > 100 µM
5  O=C(N/N=C\c1ccc2ccccc2c1)Nc1ccc([N+](=O)[O-])cc1  HL-60(TB) leukemia          TGI     > 100 µM
6                    Cc1nc2ccccc2c(=O)[nH]1  HL-60(TB) leukemia          TGI     > 100 µM
7   COc1cc[nH]c1/C=C1\C(=O)Nc2ccc(F)c(I)c21  HL-60(TB) leukemia          TGI      > 25 µM
8  CC[n+]1c(/C=C/c2ccc(N(CCCl)CCCl)cc2)ccc2cc(NC(=O)/C=C/c3ccccc3)ccc21  HL-60(TB) leukemia          TGI     0.389 µM

Asked: TGI of CC12Cc3cc4c(cc3C1(c1ccc([N+](=O)[O-])cc1)OCCO2)OCO4 (stereo not given) on HL-60(TB) leukemia?
Given back: > 100 µM

Asked: Same thing, different compound: N[C@H](C(=O)O)[C@H](Cl)CC(=O)O
Given back: > 100 µM

Asked: Same thing, different compound: CC(C)CCn1c(=O)c2c(=O)[nH][nH]c2c2ccccc21
Given back: > 100 µM

Asked: Same thing, different compound: C[C@@H]1COCCN1c1cc(C2(S(C)(=N)=O)CC2)nc(-c2ccnc3[nH]ccc23)n1 (stereo not given in full)
Given back: > 100 µM

Asked: Same thing, different compound: Cc1cccc(C(O)c2ccncc2)c1O (stereo not given)
Given back: > 100 µM

Asked: Same thing, different compound: COC(=O)CCC12CCC(O1)c1ccccc12 (stereo not given)
Given back: > 100 µM

Asked: Same thing, different compound: O=[N+]([O-])c1cccnc1NCC1(CO)CC(Cc2ccccc2)C1 (stereo not given)
Given back: > 100 µM

----------
System: NCI-H460 lung
Test: NCI tumour cell line growth inhibition, 48 h
Here the recorded TGI is given for each entry.

Example entries and their recorded answers appear below.
> print(dat)
                                   molecule  metric.name  assay.value
1  CCCCCCCCCCCCCCCCCCCCCC(=O)Nc1ccn(C2OC(CO)C(O)C2O)c(=O)n1 (centres undefined)          TGI     > 100 µM
2  O=[N+]([O-])c1cccnc1NCC1(CO)CC(Cc2ccccc2)C1 (centres undefined)          TGI     > 100 µM
3  C#C[C@]1(O)CC[C@H]2[C@@H]3CCc4cc(OC(=O)c5cccc6cc7ccccc7nc56)ccc4[C@H]3CC[C@@]21C          TGI     > 100 µM
4                 O=c1oc2ccccc2n1CCN1CCCCC1          TGI     > 100 µM
5  O=C(CC(C(=O)c1ccoc1)c1ccco1)c1ccco1 (centres undefined)          TGI     > 100 µM

Asked: TGI lookup needed for CC[C@H]1OC([C@H](O)C/C=C\C#C[Si](C)(C)C)C/C=C\C[C@H]1O[Si](C)(C)C(C)(C)C (some centres undefined) , thanks.
Given back: > 100 µM

Asked: Same thing, different molecule: COC(=O)c1c(C)cccc1CC1Cc2c(C)cccc2C1=O (centres undefined)
Given back: > 100 µM

Asked: Same thing, different molecule: CC(C)(C)c1ccc(S(=O)(=O)N[C@H]2CC[C@H]3[C@@H]4CCc5cc(OS(=O)(=O)O)ccc5[C@H]4CC[C@]23C)cc1
Given back: 4.79 µM

Asked: Same thing, different molecule: O=C(CSCC(=O)N/N=C\c1ccc(-c2ccccc2)cc1)N/N=C\c1ccc(-c2ccccc2)cc1
Given back: > 100 µM

Asked: Same thing, different molecule: O=C(CN1CCN(c2ccccc2)CC1)N1CCc2c([nH]c3ccccc23)C1c1cccnc1 (centres undefined)
Given back: > 100 µM

Asked: Same thing, different molecule: C#CC[C@@H]1C[C@]2(C)[C@H]3CC=C4[C@H]5CC(C)(C)CC[C@]5(C(=O)NCCCCN)CC[C@@]4(C)[C@]3(C)CC[C@H]2C(C)(C)[C@H]1OC(C)=O
Given back: 3.47 µM

Asked: Same thing, different molecule: CCCCCCCCCc1cc(=O)c2ccc(O)cc2o1
Given back: > 100 µM

Asked: Same thing, different molecule: O=c1[nH]nc(Cc2ccccc2)n1Nc1ccccc1
Given back: > 100 µM

Asked: Same thing, different molecule: CC1OC2CC(=O)OC2C2=C1C(=O)c1c(O)c3c(c(O)c1C2=O)C1CC(O)C3(O)C(C)O1 (centres undefined)
Given back: 3.14 µM

Asked: Same thing, different molecule: CCC(=O)O[C@H]1CC[C@H]2[C@@H]3CCC4=C/C(=N/NC(=O)c5cccc6c(=O)c7ccccc7[nH]c56)CC[C@]4(C)[C@H]3CC[C@]12C
Given back: > 25 µM

Asked: Same thing, different molecule: CCOC(=O)C(=O)Nc1c(C)cccc1C
Given back: > 100 µM

Asked: Same thing, different molecule: O=NNc1nc(-c2cccnc2)nc2ccccc12
Given back: > 100 µM

Asked: Same thing, different molecule: CN(C)c1ccc(/C=C/C=C(/C#N)c2ccccc2)cc1
Given back: 83.7 µM

Asked: Same thing, different molecule: Cc1cc2c(c(C=NCc3ccccc3)c1)OC1(C=C2)Oc2ccccc2C(=O)N1C (centres undefined)
Given back: 55.4 µM

----------
Tested on: KM12 colon
Test: NCI tumour cell line growth inhibition, 48 h
Here the recorded TGI is given for each entry.

compound	TGI
COc1c(N2CCN(CN3C(=O)C(=Nc4ccc(S(=O)(=O)Nc5ncccn5)cc4)c4ccccc43)C(C)C2)c(F)cc2c(=O)c(C(=O)O)cn(C3CC3)c12 (stereo not drawn)	> 50 µM
CC(=O)Nc1ccc2[nH]c(-c3cccc(F)c3)cc(=O)c2c1	> 100 µM

Asked: TGI lookup needed for Cn1c2ccccc2c(=NNc2ccc(C(=O)O)cc2)c2ccccc21 , thanks.
Given back: 50.3 µM

----------
Test system: SR leukemia
Assay: NCI tumour cell line growth inhibition, 48 h
Here the recorded TGI is given for each entry.

Example entries and their recorded answers appear below.
> print(dat)
                                   compound  metric.name  assay.value
1  O=C(CC(C(=O)c1ccoc1)c1ccco1)c1ccco1 (stereo not drawn)          TGI     > 100 µM
2  CSc1nc2c(nc(N)n2C2OCC(O)C(O)C2O)c(=O)n1C (stereo not drawn)          TGI     > 100 µM

Asked: TGI of O=c1[nH]nc(Cc2ccccc2)n1Nc1ccccc1 on SR leukemia?
Given back: > 100 µM
